Values were extracted from PubChem BioAssay AID1345082.

- protocol-text: Cytotoxic Profiling in NIH 3T3 Cell Line of Diverse Libraries Using Quantitative High-Throughput Screening; further: nearly all actives have a fitted effect of over 55% in size; further: potency means the concentration at half of the fitted maximal effect
- condition: NIH 3T3 viability, CellTiter-Glo ATP luminescence, 48-72 h; series mostly up to 96.7 µM
- Source text: Cell-based phenotypic screening is a commonly used approach to discover biological pathways, novel drug targets, chemical probes and high-quality hit-to-lead molecules. Many hits identified from high-throughput screening campaign are ruled out through a series of follow-up potency, selectivity/specificity, and cytotoxicity assays. […]
Screen size: about 94,000 compounds; about 4,000 (4.3%) were called active. Not shown: some 29% with an inconclusive outcome. Only a selection was taken, and actives are over-represented in it overall.
measure: Potency

* CCn1ccc(C(=O)NCC2CCCCC(=O)N2)n1 (stereo unspecified) | inactive
* CN(Cc1ccccc1)Cc1cn([C@H]2CO[C@H]3[C@@H]2OC[C@@H]3NS(C)(=O)=O)nn1 | inactive
* Cc1ccc(-c2cc3c(=O)n(CCNC(=O)Cc4c[nH]c5ccccc45)ccn3n2)cc1C | inactive
* Cc1cc(C)c(-c2nc3ncccc3[nH]2)[nH]1 | inactive
* CC(C)CN1C(=O)c2cccn2CC1C(=O)NCC1CCN(Cc2cccc(F)c2)CC1 (stereo unspecified) | inactive
* COc1cc(-c2noc(-c3nc(-c4ccc5c(c4)OCO5)no3)n2)cc(OC)c1OC | inactive
* COc1cccc(NC(=O)Cn2c(-c3ccccc3)nc(C)cc2=O)c1 | inactive
* Cc1ccc(NS(=O)(=O)c2ccccc2)c(=O)n1CC(=O)N(C)Cc1ccccc1 | inactive

# input Please look at this compound and report its Potency: COc1ccc(-c2cc(N3CCCN(C(=O)c4ccc(C)cc4)CC3)n[nH]2)cc1
# output inactive

# input Please look at this compound and report its Potency: C[S+](=O)([O-])c1cccc(-c2ncc3c(n2)OCCN(Cc2ccc(F)cc2F)C3=O)c1
# output 28.2 µM (active)

# input Please look at this compound and report its Potency: O=C(NCc1nc(-c2cccc(F)c2)c(-c2ccccn2)[nH]1)[C@@H]1CCCN1
# output inactive

# input Please look at this compound and report its Potency: O=C(c1ccc(C(F)(F)F)cc1)N1CCCC2(CC(c3ccccn3)=NO2)C1 (stereo unspecified)
# output inactive

# input Please look at this compound and report its Potency: COCCOc1ccc(-c2noc([C@@H]3CCCN3Cc3cccnc3)n2)cn1
# output inactive

# input Please look at this compound and report its Potency: Cc1cccc(C)c1NC(=O)CN1C(=O)NC(c2ccc(Cl)cc2)C2=C1COC2=O (stereo unspecified)
# output inactive

# input Please look at this compound and report its Potency: Cc1cc(N)n(CC(=O)N[C@@H]2COCC[C@@H]2OCc2c(C)noc2C)n1
# output inactive

# input Please look at this compound and report its Potency: CCCCOC(=O)c1ccc(NC(=O)c2c(OC)cc(=O)n3c2CCCC3)cc1
# output inactive

# input Please look at this compound and report its Potency: Cc1nc(C(=O)N2CC[C@H](N3CCN(C)CC3)[C@H](CCCO)C2)cs1
# output inactive

====

- protocol-text: Cytotoxic Profiling in NIH 3T3 Cell Line of Diverse Libraries Using Quantitative High-Throughput Screening; further: nearly all actives have a fitted effect of over 55% in size
- condition: NIH 3T3 viability, CellTiter-Glo ATP luminescence, 48-72 h; series mostly up to 96.7 µM
Hit rate of the full screen: of about 94,000 compounds, about 4,000 (4.3%) were called active. Roughly 29% stayed inconclusive and do not appear here. Calls come from the whole dose curve; as a rule, active = well fitted inhibition curve with a large enough effect; inconclusive = small, poorly fitted or top-dose-only effect; inactive = no such curve, though single readings can be large or run the other way. The list comes from a sample in which actives are over-represented; it also holds close analogues and randomly drawn compounds.
Use one of these outcomes when replying: active, inactive

Completed entries (count: 10):
• NC(=O)c1cccc(-c2ncc3c(n2)OCCN(c2cccc(C(F)(F)F)c2)C3=O)c1 = active
• O=C(Cn1nc2c(cc1=O)CCCC2)NC1CCCc2c1[nH]c1c(Cl)cccc21 (stereo unspecified) = inactive
• COc1ccc(N2CCC(NS(=O)(=O)C3CC3)C2=O)cc1 (stereo unspecified) = inactive
• Cc1cc(CNC(=O)C2CCCN(C3CCN(CCc4ccccc4)CC3)C2)on1 (stereo unspecified) = inactive
• CN1CCC(N2CC[C@H](c3nc4ccccc4s3)C2)CC1 = active
• O=C(Cc1ccccc1)NC1CCCc2c1[nH]c1c(Cl)cccc21 (stereo unspecified) = active
• COc1ccc(CC(=O)NC2CCCc3c2[nH]c2ccccc32)cc1 (stereo unspecified) = active
• COC(=O)[C@@H]1C[C@H](NC(=O)c2cc(OC)nc(OC)n2)CN1C = inactive
• O=C(NCc1cccnc1)c1nc(-c2ccc(Cl)nc2)c2cnccn12 = inactive
• c1ccc2sc(C3CCCN(Cc4cc5n(n4)CCNC5)C3)nc2c1 (stereo unspecified) = inactive

Please look at the following compound next.
# input What did the test return for Cn1c([C@H]2CCN(C3CCOCC3)C2)nc2ccccc21 ?
# output inactive

====

- protocol-text: Cytotoxic Profiling in NIH 3T3 Cell Line of Diverse Libraries Using Quantitative High-Throughput Screening; further: nearly all actives have a fitted effect of over 55% in size
- condition: NIH 3T3 viability, CellTiter-Glo ATP luminescence, 48-72 h; series mostly up to 96.7 µM
Among all 94,000 compounds or so, about 4,000 (4.3%) were called active. About 29% were inconclusive and are not listed. Calls follow the shape of the dose curve; as a rule, active = well fitted inhibition curve with a large enough effect; inconclusive = small, poorly fitted or top-dose-only effect; inactive = no such curve, though single readings can be large or run the other way. The full list was thinned out, with actives kept by preference.
Use one of these outcomes when replying: active, inactive

# input What did the test return for CC1=C[C@@H](CN(CC2CC2)CC2CC2)[C@H](C(C)C)C[C@H]1Cc1nc2c(C)cccc2[nH]1 ?
# output active

====

- protocol-text: Cytotoxic Profiling in NIH 3T3 Cell Line of Diverse Libraries Using Quantitative High-Throughput Screening; further: nearly all actives have a fitted effect of over 55% in size
- condition: NIH 3T3 viability, CellTiter-Glo ATP luminescence, 48-72 h; series mostly up to 96.7 µM
Hit rate of the full screen: of about 94,000 compounds, about 4,000 (4.3%) were called active. Inconclusive results (about 29%) are left out. Calls come from the whole dose curve; as a rule, active = well fitted inhibition curve with a large enough effect; inconclusive = small, poorly fitted or top-dose-only effect; inactive = no such curve, though single readings can be large or run the other way. This is one part of a sample in which actives are shown more often than they occur.
Use one of these outcomes when replying: Yes = active, No = inactive

Completed entries (count: 4):
* CC#CCn1cc2c3c(cccc31)[C@H](CC(C)C)N[C@H](C(=O)NCc1ccccc1OC)C2 | Yes
* CCCOC(=O)N1CCCC(c2nccn2CCCN(C)C)C1 (stereo unspecified) | No
* CC(C)N1CC2(C1)C(=O)N(CCCN1CCCC1=O)C(=O)[C@@H]1C[C@@H](O)CN12 | No
* O=C(NCC1CN(Cc2ccccc2)CC12CN(c1ccccc1)C2)Nc1ccccc1 (stereo unspecified) | Yes

# input What did the test return for COc1ccccc1C(=O)N1CCc2nnc([C@@H]3C[C@@H](O)CN3C)n2CC1 ?
# output No

# input What did the test return for Cc1ccc2c(n1)N(C)[C@H](CO)CCN(Cc1ccccc1C)C2 ?
# output No

# input What did the test return for COc1ccccc1CNC(=O)CN1CC[C@](C)(O)[C@@H](O)C1 ?
# output No

# input What did the test return for COc1ccc2cc(-c3[nH]ncc3CN3CCN(c4cccc(C)n4)CC3)ccc2c1 ?
# output Yes

# input What did the test return for COc1ccc(F)cc1-c1ccc(CN2CCC(NC(=O)c3ccccc3)C2)cc1 (stereo unspecified) ?
# output Yes

====

- protocol-text: Cytotoxic Profiling in NIH 3T3 Cell Line of Diverse Libraries Using Quantitative High-Throughput Screening; further: nearly all actives have a fitted effect of over 55% in size
- condition: NIH 3T3 viability, CellTiter-Glo ATP luminescence, 48-72 h; series mostly up to 96.7 µM
In all, about 94,000 compounds went through this assay and about 4,000 (4.3%) were called active. Another 29% or so got no clear call; they are omitted. Calls come from the whole dose curve; as a rule, active = well fitted inhibition curve with a large enough effect; inconclusive = small, poorly fitted or top-dose-only effect; inactive = no such curve, though single readings can be large or run the other way. This excerpt belongs to a sample that is enriched for actives.
Use one of these outcomes when replying: active, inactive

# input What did the test return for COc1cc2c(cc1OC)C(CNC(=O)c1ccc(Cl)cc1)N(C(=O)Nc1ccccc1)CC2 (stereo not given) ?
# output inactive

# input What did the test return for O=C1NC2(CCCN([S+](=O)([O-])c3ccccc3)C2)COc2ccccc21 (stereo not given) ?
# output active

# input What did the test return for CC#CCN1C(=O)NC(CCc2ccccc2)(C2CCN(Cc3ccccc3-c3ccco3)CC2)C1=O (stereo not given) ?
# output inactive

# input What did the test return for O=[S+]([O-])(c1ccccc1)N1CCCC2(CC(c3ccccn3)=NO2)C1 (stereo not given) ?
# output inactive

# input What did the test return for COc1ccccc1-c1cnc(NC(=O)c2ccc(Cl)cc2)c2c1CCO2 ?
# output active

====

- protocol-text: Cytotoxic Profiling in NIH 3T3 Cell Line of Diverse Libraries Using Quantitative High-Throughput Screening; further: nearly all actives have a fitted effect of over 55% in size
- condition: NIH 3T3 viability, CellTiter-Glo ATP luminescence, 48-72 h; series mostly up to 96.7 µM
Among all 94,000 compounds or so, about 4,000 (4.3%) were called active. Another 29% or so got no clear call; they are omitted. Calls follow the shape of the dose curve; as a rule, active = well fitted inhibition curve with a large enough effect; inconclusive = small, poorly fitted or top-dose-only effect; inactive = no such curve, though single readings can be large or run the other way. The sample holds actives, similar compounds and a random draw of the others, so the mix is not that of the screen.
Use one of these outcomes when replying: active, inactive

Completed entries (count: 2):
* O=C(NCCc1ccccc1)c1ccc2nnc(-c3cccc(C(F)(F)F)c3)n2c1 | active
* COCC(=O)N[C@@H]1CN(Cc2ccc(F)c(OC)c2)C[C@H]1CO | inactive

# input What did the test return for Cc1nc2cnccn2c1C(=O)NC1CCCC1 ?
# output inactive

# input What did the test return for CNC(=O)c1cc(C2CC2)nc2onc(C3CCN(C(=O)Cc4ccc(OC)cc4)CC3)c12 ?
# output inactive

# input What did the test return for COc1cccc(-c2ccc(C(=O)N3CCC(NC(=O)Cc4ccc(F)cc4)CC3)cc2)c1 ?
# output active

# input What did the test return for CCN(CC)C(=O)[C@@H](C)C1CC[C@@]2(C)Cc3sc(N)nc3[C@@H](C)[C@@H]2[C@H]1O (stereo partly specified) ?
# output inactive

# input What did the test return for O=C(CCNc1cnc2cnccn12)NC1CCN(Cc2ccccc2)CC1 ?
# output inactive
